# ASSAY EXPLANATION: Microsomal clearance
# Format: in vitro ADME
# EXPERIMENTAL PARAMETERS: rat, rat microsomes, Table 1
VALUE TYPE: microsomal CLint (µL/min/mg)

>>> print(df.to_string())
                                   compound        value_type  inequality_sign  reported
0  CC1(C)C(C(=O)c2cn(CCN3CCOCC3)c3ccccc23)C1(C)C [RNB-92]  microsomal CLint                =       730
1  Cn1c(C(C)(C)C)cc(=NC(=O)c2cc(C(F)(F)F)ccc2OCC(C)(C)O)n1CC1CCC1 [RNB-61]  microsomal CLint                <        10
2  CC(C)(Oc1ccc(C(F)(F)F)cn1)C(=O)Cc1cc(C(C)(C)C)no1 [RNB-90]  microsomal CLint                =        81
3  N#Cc1cc(NC(=O)CCc2nc(-c3ccc(F)cc3Cl)no2)cnc1CC(F)(F)F [RNB-73]  microsomal CLint                <        10

###

# TARGET DESC: TRPV1 (Homo sapiens, UniProt Q8NER1)
# Sequence (Q8NER1 whole entry, species assumed): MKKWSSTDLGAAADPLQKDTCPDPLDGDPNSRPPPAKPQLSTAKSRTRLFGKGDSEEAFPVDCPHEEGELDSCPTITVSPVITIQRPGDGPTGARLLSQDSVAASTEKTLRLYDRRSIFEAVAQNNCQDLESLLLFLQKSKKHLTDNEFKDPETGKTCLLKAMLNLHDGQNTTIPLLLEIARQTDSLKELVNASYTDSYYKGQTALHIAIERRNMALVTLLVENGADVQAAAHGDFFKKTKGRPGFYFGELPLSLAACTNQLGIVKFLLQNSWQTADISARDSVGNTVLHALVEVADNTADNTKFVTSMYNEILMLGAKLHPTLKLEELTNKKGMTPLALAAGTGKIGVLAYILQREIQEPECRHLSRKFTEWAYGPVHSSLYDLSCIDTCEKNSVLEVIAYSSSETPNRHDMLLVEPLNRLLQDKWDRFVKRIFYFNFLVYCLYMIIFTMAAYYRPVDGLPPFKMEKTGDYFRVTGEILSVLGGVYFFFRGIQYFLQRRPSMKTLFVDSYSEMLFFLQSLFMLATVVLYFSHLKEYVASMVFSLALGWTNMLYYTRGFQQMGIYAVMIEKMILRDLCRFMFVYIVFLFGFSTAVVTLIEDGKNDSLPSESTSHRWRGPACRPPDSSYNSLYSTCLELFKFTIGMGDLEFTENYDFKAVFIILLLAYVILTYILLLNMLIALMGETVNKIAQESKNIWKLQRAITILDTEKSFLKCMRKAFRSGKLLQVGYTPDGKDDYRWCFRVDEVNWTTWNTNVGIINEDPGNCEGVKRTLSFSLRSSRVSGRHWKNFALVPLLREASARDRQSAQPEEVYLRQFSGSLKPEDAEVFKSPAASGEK
VALUE TYPE: IC50

In [3]: df
Out[3]:
                                   compound  reported
0  Cn1c(C(C)(C)C)cc(=NC(=O)c2cc(C(F)(F)F)ccc2OCC(C)(C)O)n1CC1CCC1 [RNB-61]   > 50 µM

###

# TARGET DESC: rat CB2R (Rattus norvegicus, UniProt Q9QZN9)
# Sequence (Q9QZN9 1-360): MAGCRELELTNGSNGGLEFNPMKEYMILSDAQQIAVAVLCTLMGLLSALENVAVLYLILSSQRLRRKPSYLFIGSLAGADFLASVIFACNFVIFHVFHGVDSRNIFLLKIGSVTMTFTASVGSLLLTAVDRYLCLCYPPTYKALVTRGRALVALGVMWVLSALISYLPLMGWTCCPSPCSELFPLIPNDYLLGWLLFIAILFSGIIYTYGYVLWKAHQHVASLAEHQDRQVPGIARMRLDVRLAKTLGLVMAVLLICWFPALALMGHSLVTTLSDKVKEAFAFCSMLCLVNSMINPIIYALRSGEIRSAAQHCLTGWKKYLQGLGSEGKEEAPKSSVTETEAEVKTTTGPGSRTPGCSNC
# ASSAY EXPLANATION: cAMP assay in CHO cells
# EXPERIMENTAL PARAMETERS: mean ± SD
pEC50: −log10 of the molar value.
VALUE TYPE: pEC50

>>> print(df.to_string())
                              record_smiles  value_type  reported
0  Cn1c(C(C)(C)C)cc(=NC(=O)c2cc(C(F)(F)F)ccc2OCC(C)(C)O)n1CC1CCC1       pEC50      9.89

###

# TARGET DESC: TRPA1 (Homo sapiens, UniProt O75762)
# Sequence (O75762 whole entry, species assumed): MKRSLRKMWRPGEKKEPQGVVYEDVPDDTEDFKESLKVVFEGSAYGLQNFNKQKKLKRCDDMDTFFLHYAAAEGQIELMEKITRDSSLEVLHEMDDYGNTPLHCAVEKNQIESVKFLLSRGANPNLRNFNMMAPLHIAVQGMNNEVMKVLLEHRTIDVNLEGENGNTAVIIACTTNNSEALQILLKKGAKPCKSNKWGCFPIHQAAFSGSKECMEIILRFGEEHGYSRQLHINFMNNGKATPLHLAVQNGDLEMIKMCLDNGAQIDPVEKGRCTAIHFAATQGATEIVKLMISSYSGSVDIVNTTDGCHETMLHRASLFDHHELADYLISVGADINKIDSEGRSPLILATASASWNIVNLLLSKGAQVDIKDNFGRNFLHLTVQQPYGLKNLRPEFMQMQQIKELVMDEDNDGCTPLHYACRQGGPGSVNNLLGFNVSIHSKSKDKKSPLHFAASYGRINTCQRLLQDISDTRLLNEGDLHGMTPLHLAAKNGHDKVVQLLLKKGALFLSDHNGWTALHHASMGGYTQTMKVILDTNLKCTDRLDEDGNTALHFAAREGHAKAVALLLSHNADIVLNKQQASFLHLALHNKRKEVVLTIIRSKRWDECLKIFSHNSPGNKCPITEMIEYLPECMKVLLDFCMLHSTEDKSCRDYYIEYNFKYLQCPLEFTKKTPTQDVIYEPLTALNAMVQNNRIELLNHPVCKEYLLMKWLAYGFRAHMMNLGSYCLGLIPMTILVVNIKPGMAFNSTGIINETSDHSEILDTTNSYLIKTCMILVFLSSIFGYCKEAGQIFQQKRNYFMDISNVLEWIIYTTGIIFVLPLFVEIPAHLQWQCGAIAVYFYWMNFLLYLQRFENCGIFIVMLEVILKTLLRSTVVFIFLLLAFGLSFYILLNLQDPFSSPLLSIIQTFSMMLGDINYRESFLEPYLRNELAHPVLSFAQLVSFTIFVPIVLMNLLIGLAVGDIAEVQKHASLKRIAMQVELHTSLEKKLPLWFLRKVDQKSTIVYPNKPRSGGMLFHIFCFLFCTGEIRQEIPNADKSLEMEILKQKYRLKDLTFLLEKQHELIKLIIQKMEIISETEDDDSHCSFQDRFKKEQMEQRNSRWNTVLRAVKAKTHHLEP
VALUE TYPE: IC50

In [3]: df
Out[3]:
                                   molecule  value_type  reported
0  Cn1c(C(C)(C)C)cc(=NC(=O)c2cc(C(F)(F)F)ccc2OCC(C)(C)O)n1CC1CCC1 [RNB-61]        IC50   > 50 µM
